Numbers sourced from paper PMC7865074.

TARGET_SYSTEM: T1, biotinylated WNV NS5 PBM peptide (West Nile virus, also: biotinyl group, end not given here)
T1 construct: bait of the holdup assay; also called 13-mer peptide; source: synthetic peptide (solid phase, Fmoc; Proteogenix)
T1 peptide: RYEDTTLVEDTVL
PROTOCOL_SUMMARY: holdup assay (automated high-throughput chromatography); biotinylated NS5 PBM peptide as bait against 259 human PDZ domains expressed in E. coli; read-out binding intensity (BI), mean of replicates; BI threshold 0.2 for a significant interaction
Ends that are not written are not given here.
Each entry below carries its recorded BI (holdup binding intensity).
Response field accepts a number only; no unit should be typed.

Solved entries (count: 2):
BINDER | BI (holdup binding intensity)
Rho GTPase-activating protein 21, PDZ domain (holdup construct) (domain or fragment, human, UniProt Q5T5U3 50-159, looked up, also called ARHGAP21; source: E. coli, PDZome V.2 library, high-throughput expression) TVTLKRTSQGFGFTLRHFIVYPPESAIQFSYKDEENGNRGGKQRNRLEPMDTIFVKQVKEGGPAFEAGLCTGDRIIKVNGESVIGKTYSQVIALIQNSDTTLELSVMPKD | 0.3
Synaptojanin-2-binding protein, PDZ domain (holdup construct) (domain or fragment, human, UniProt P57105 13-100, looked up, also called SYNJ2BP; source: E. coli, PDZome V.2 library, high-throughput expression) EINLTRGPSGLGFNIVGGTDQQYVSNDSGIYVSRIKENGAAALDGRLQEGDKILSVNGQDLKNLLHQDAVDLFRNAGYAVSLRVQHRL | 0.21

Consider the additional binder presented here.
**Query** Which BI (holdup binding intensity) is reported for this binder? SH3 and multiple ankyrin repeat domains protein 3, PDZ domain (holdup construct) (domain or fragment, human, UniProt Q9BYB0 646-740, looked up, also called SHANK3; source: E. coli, PDZome V.2 library, high-throughput expression) VAVLQKRDHEGFGFVLRGAKAETPIEEFTPTPAFPALQYLESVDVEGVAWRAGLRTGDFLIEVNGVNVVKVGHKQVVALIRQGGNRLVMKVVSVT
**Result** 0.39
